- Tested on: Pseudomonas aeruginosa
- measurement_description: Competitive inhibition of Pseudomonas aeruginosa 101/1477 metallo-beta-lactamase IMP-1 expressed in Escherichia coli BL21 (DE3) using benzylpenicillin as substrate by spectrophotometric analysis
Activity calls are given as the source filed them. The calls are words filed in the database; no cut-off is given here.
property_measured: Kic

Solved entries:
1. O=C(O)C1CCCCN1C(=O)CS (racemic) : 3.4 µM
2. O=C(O)[C@@H]1CCCN1C(=O)CCS : 9.9 µM
3. O=C(O)CC(=O)N1CCC[C@H]1C(=O)O : inactive
4. CC(=O)SCC(=O)N1CCCCC1C(=O)O (racemic) : 24 µM

Task item: Specify measured Kic for O=C(O)C1CCCCN1C(=O)CCS (racemic) .
Reply: 10 µM

Task item: Specify measured Kic for O=C(O)CC(=O)N1CCC[C@@H]1C(=O)O .
Reply: inactive

Task item: Specify measured Kic for O=C(O)[C@H]1CCCN1C(=O)CCS .
Reply: 2.9 µM

Task item: Specify measured Kic for O=C(O)[C@H]1CCCN1C(=O)CS .
Reply: 2.3 µM

Task item: Specify measured Kic for O=C(O)COC[C@H]1CCCN1C(=O)CS .
Reply: 290 µM

Task item: Specify measured Kic for O=C(O)[C@@H]1CCCN1C(=O)CS .
Reply: 2.2 µM

Task item: Specify measured Kic for O=C(O)CCC(=O)N1CCC[C@@H]1C(=O)O .
Reply: inactive

Task item: Specify measured Kic for O=C(O)COC[C@H]1CCCN1C(=O)CCS .
Reply: 390 µM

Task item: Specify measured Kic for O=C(O)[C@H]1CCCN1C(=O)CCCS .
Reply: 5.8 µM

Task item: Specify measured Kic for O=C(O)CCCC(=O)N1CCC[C@H]1C(=O)O .
Reply: inactive

Task item: Specify measured Kic for O=C(O)[C@@H]1CCCN1C(=O)CCCS .
Reply: 7.2 µM

Task item: Specify measured Kic for O=C(O)CCC(=O)N1CCC[C@H]1C(=O)O .
Reply: inactive

Task item: Specify measured Kic for O=C(O)CCCC(=O)N1CCC[C@@H]1C(=O)O .
Reply: inactive

Task item: Specify measured Kic for O=C(O)COC[C@H]1CCCN1C(=O)CCCS .
Reply: 363 µM

Task item: Specify measured Kic for O=C(O)C1CCCCN1C(=O)CCCS (racemic) .
Reply: 7.1 µM
